Test system: ONC-T18
Assay: Fatty acid production antagonist supplementation of ONC-T18 culture, fatty acid profile by FAME GC-FID
Type: cell-based, Thraustochytrium sp. ONC-T18
Conditions: presence of the antagonist; oleic acid without glucose
Readout: arachidic acid, lipid as percentage of total fatty acid (%)
Please respond with the number in % and leave the unit unwritten.

IN: Write down arachidic acid, lipid as percentage of total fatty acid measured for item CCC/C(=N\OCC)C1=C(O)CC(CC(C)SCC)CC1=O (stereo not drawn)
OUT: 0.2

IN: Write down arachidic acid, lipid as percentage of total fatty acid measured for item COc1cc(CNC(=O)CCCC/C=C/C(C)C)ccc1O
OUT: 0.20

IN: Write down arachidic acid, lipid as percentage of total fatty acid measured for item C/C=C/C/C=C/CCC(=O)[C@H]1O[C@H]1C(N)=O
OUT: 0.41

IN: Write down arachidic acid, lipid as percentage of total fatty acid measured for item Cc1ccccc1C(=O)O
OUT: 0.23

IN: Write down arachidic acid, lipid as percentage of total fatty acid measured for item CNc1cnn(-c2cccc(C(F)(F)F)c2)c(=O)c1Cl
OUT: 0.16

IN: Write down arachidic acid, lipid as percentage of total fatty acid measured for item CCCCCCCC/C=C\CCCCCCCC(=O)O
OUT: 0.00

---

Tested on: ONC-T18
Test: Fatty acid production antagonist supplementation of ONC-T18 culture, fatty acid profile by FAME GC-FID
Format: cell-based, Thraustochytrium sp. ONC-T18
Details: presence of the antagonist; oleic acid without glucose
# docosapentaenoic acid n-3, lipid as percentage of total fatty acid >= 0.2% gives 1 (yes), anything below gives 0 (no)

COc1cc(CNC(=O)CCCC/C=C/C(C)C)ccc1O :: 1 (yes)
C/C=C/C/C=C/CCC(=O)[C@H]1O[C@H]1C(N)=O :: 1 (yes)
CCCCCCCC/C=C\CCCCCCCC(=O)O :: 1 (yes)

IN: Record Cc1ccccc1C(=O)O ; criterion: docosapentaenoic acid n-3, lipid as percentage of total fatty acid no lower than 0.2%. Met?
OUT: 1 (yes)

IN: Record CCC/C(=N\OCC)C1=C(O)CC(CC(C)SCC)CC1=O (stereo not drawn) ; criterion: docosapentaenoic acid n-3, lipid as percentage of total fatty acid no lower than 0.2%. Met?
OUT: 1 (yes)

IN: Record CNc1cnn(-c2cccc(C(F)(F)F)c2)c(=O)c1Cl ; criterion: docosapentaenoic acid n-3, lipid as percentage of total fatty acid no lower than 0.2%. Met?
OUT: 0 (no)

---

Documented eicosatrienoic acid, lipid as percentage of total fatty acid across a set of compounds
System: ONC-T18
Assay: Fatty acid production antagonist supplementation of ONC-T18 culture, fatty acid profile by FAME GC-FID
Format: cell-based, Thraustochytrium sp. ONC-T18
Details: presence of the antagonist; oleic acid without glucose
Please respond with the number in % and leave the unit unwritten.

Example cases with answers are listed next.
Cc1ccccc1C(=O)O [toluic acid] :: 0.03
CCC/C(=N\OCC)C1=C(O)CC(CC(C)SCC)CC1=O (stereo not drawn) [sethoxydim] :: 0.00
COc1cc(CNC(=O)CCCC/C=C/C(C)C)ccc1O [capsaicin] :: 0.00
CCCCCCCC/C=C\CCCCCCCC(=O)O [oleic acid] :: 0.00

IN: Write down eicosatrienoic acid, lipid as percentage of total fatty acid measured for item CNc1cnn(-c2cccc(C(F)(F)F)c2)c(=O)c1Cl [norflurazon]
OUT: 0.00

IN: Write down eicosatrienoic acid, lipid as percentage of total fatty acid measured for item C/C=C/C/C=C/CCC(=O)[C@H]1O[C@H]1C(N)=O [cerulenin]
OUT: 0.00
